Each recorded value in this set is attributed to the supplement of paper PMC10567573.

Measured protein stability index, listed per entry.
B1: C10orf62 (parent)
chain: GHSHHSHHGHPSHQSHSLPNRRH

Variants of: B1
ASSAY INFO: protein stability index of a GFP-peptide fusion (GPS, HEK-293T) (PSI 1-6); higher = more stable;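 note: lentivirally expressed fusions sorted by FACS into six bins by GFP to DsRed ratio, PSI derived from sequencing read proportions per bin multiplied by bin number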
PARTICULARS: c terminus: native
Just the number, please, no unit attached.

{"columns": ["VARIANT", "protein stability index"],
 "data": [
  ["R21S", 1.67],
  ["R21K", 1.94],
  ["H8A", 5.15],
  ["H5Y", 3.13],
  ["P11K", 4.06],
  ["H10C", 3.79],
  ["H2T", 3.56],
  ["H10W", 3.14]
]}

[in] Report protein stability index for G9Q
[out] 2.3

[in] Answer with the recorded protein stability index for the variant listed here: H13R
[out] 2.55

[in] Supply recorded protein stability index for H5E here.
[out] 2.3

[in] Look up and state reported protein stability index for S12P
[out] 3.31

[in] Identify the reported protein stability index for the following entry. R22W
[out] 2.86
